Origin of measurements: patent US11976083B2

I'd be grateful if you could share measured pIC50 for these entries.
Biological target: human PAD4 (Homo sapiens)
Construct: human PAD4 (NM_012387), A2-P663, was PCR amplified; His-SUMO (N, cleaved yes)
Assay: In vitro PAD4 BAEE biochemical assay
Conditions: BAEE substrate 3 mM, 5 nM PAD4, 2 mM calcium chloride; geometric mean of multiple experiments
Answers are plain numbers, as −log10 of the molar value.

Field: example entries. Status: answers known.
>  <molecule>
COc1cc(C(=O)N2CCC[C@@H](N)C2)cc2nc(-c3cc4ccc5nc4n3C[C@@H]3C[C@H]3CC[C@H]3C[C@@H]3C(=O)N[C@@H]5C)n(C)c12

>  <pIC50>
7.05

$$$$
>  <molecule>
C[C@H]1NC(=O)[C@@H]2CC2CCCC(F)(F)Cn2c(-c3nc4cc(C(=O)N5C[C@H]6CC[C@@H]5[C@@H]6N)c(F)c(F)c4n3C)cc3ccc1nc32 (stereo partly shown)

>  <pIC50>
7.01

$$$$
>  <molecule>
COc1cc(C(=O)N[C@@H]2CC[C@H](C)NC2)cc2nc(-c3cc4ccc5nc4n3CCCCCCC(C)(C)C(=O)N[C@@H]5C)n(C)c12

>  <pIC50>
6.90

$$$$

Value sought for every listed molecule: pIC50.
1. COc1cc(C(=O)N2[C@H]3CC[C@@H]2[C@H](N)C3)cc2nc(-c3cc4ccc5cc4n3CCCOC[C@H]3C[C@H]3C(=O)N[C@@H]5C)n(C)c12
2. C[C@H]1NC(=O)[C@@H]2C[C@H]2CCCC(F)(F)Cn2c(-c3nc4cc(C(=O)N[C@H]5CNCC[C@@H]5F)c(F)cc4n3C)cc3ccc1nc32
3. C[C@H]1NC(=O)c2c(Cl)cncc2CCCCCn2c(-c3nc4cc(C(=O)N[C@H]5CNCC[C@@H]5F)c(F)cc4n3C3CC3)cc3ccc1nc32
4. COc1cc(C(=O)N2C[C@H]3CC[C@@H]2[C@@H]3N)cc2nc(-c3cc4ccc5nc4n3CCCCCCC(C)(C)C(=O)N[C@@H]5C)n(C)c12
5. COc1cc(C(=O)N2CC[C@@H](O)[C@@H](N)C2)cc2nc(-c3cc4ccc5nc4n3CCCCCc3cncc(F)c3C(=O)N[C@@H]5C)n(C)c12
6. CO[C@@H]1CCN(C(=O)c2cc(F)c3c(c2)nc(-c2cc4ccc5nc4n2CC(F)(F)CCC[C@@H]2C[C@H]2C(=O)N[C@@H]5C)n3[C@H]2C[C@@H]2F)C[C@@H]1N
7. COc1cc(C(=O)N2C[C@H](N)[C@@H]3CC[C@H]2C3)cc2nc(-c3cc4ccc5nc4n3CCCCC[C@]3(F)C[C@H]3C(=O)N[C@@H]5C)c(C)n12
8. COc1cc(C(=O)N2[C@H]3CC[C@@H]2[C@H](N)C3)cc2nc(-c3cc4ccc5nc4n3C[C@H]3[C@@H](COCCC(=O)N[C@@H]5C)C3(C)C)n(C)c12 (single isomer, unassigned)

Resp:
1. 7.37
2. 7.43
3. 7.59
4. 6.92
5. 7.80
6. 6.90
7. 7.59
8. 6.60

Value sought for every listed molecule: pIC50.
1. [2H]C1([2H])CCCC[C@@H]2C[C@H]2C(=O)N[C@H](C)c2ccc3cc(-c4nc5cc(C(=O)N6CC[C@@H](OC)[C@@H](N)C6)cc(F)c5n4C4CC4)n1c3n2
2. COc1cc(C(=O)N2[C@H]3CC[C@@H]2[C@H](N)[C@H](OC)C3)cc2nc(-c3cc4ccc5nc4n3CCCCC[C@@H]3C[C@H]3C(=O)N[C@@H]5C)n(C)c12
3. COc1cc(C(=O)N2CCC[C@@H](N)C2)cc2nc(-c3cc4ccc5nc4n3C[C@@H]3C[C@H]3CO[C@H](C)CC(=O)N[C@@H]5C)n(C)c12
4. C[C@H]1NC(=O)[C@@]2(C)C[C@@H]2CCCCCn2c(-c3nc4cc(C(=O)N[C@H]5CNCC[C@@H]5F)c(F)cc4n3C3CC3)cc3ccc1nc32
5. COc1cc(C(=O)N[C@H]2CNCC[C@@H]2F)cc2nc(-c3cc4ccc5nc4n3CCC/C=C/c3c(noc3C)C(=O)N[C@@H]5C)n(C)c12
6. C[C@H]1NC(=O)[C@@H]2C[C@H]2CCCCCn2c(-c3nc4cc(C(=O)N[C@H]5CNC[C@H]6C[C@H]65)c(F)cc4n3C3CC3)cc3ccc1nc32
7. C[C@H]1NC(=O)c2c(ccnc2C2CC2)CCCCCn2c(-c3nc4cc(C(=O)N5C[C@H](N)[C@@H]6CC[C@H]5C6)cc(F)c4n3C3CC3)cc3ccc1nc32

Resp:
1. 7.54
2. 7.29
3. 6.86
4. 7.25
5. 7.07
6. 7.59
7. 7.70

Value sought for every listed molecule: pIC50.
1. COc1cc(C(=O)N2[C@H]3CC[C@@H]2[C@H](N)C3)cc2nc(-c3cc4ccc5nc4n3CCCCCCCC(=O)N[C@@H]5C)n(C3CC3)c12
2. COc1cc(C(=O)N2CC[C@@H](OC)[C@@H](N)C2)cc2nc(-c3cc4ccc5c(F)c4n3CC(F)(F)CCC[C@@H]3C[C@H]3C(=O)N[C@@H]5C)n(C)c12
3. COc1cc(C(=O)N2CC[C@@H](OC)[C@@H](N)C2)cc2nc(-c3cc4ccc5nc4n3CCCCCc3nn(C)nc3C(=O)N[C@@H]5C)n(C)c12

Resp:
1: 7.36; 2: 7.39; 3: 7.03

Req: Any idea what its pIC50 is? The molecule is C[C@H]1NC(=O)[C@@H]2C[C@@]2(F)CCCCCn2c(-c3nc4cc(C(=O)N[C@H]5CNCC[C@@H]5F)c(F)cc4n3C3CC3)cc3ccc1nc32
Resp: 7.92

====

I'd be grateful if you could share measured IC50 for these entries.
Target: human PAD4 (Homo sapiens, UniProt Q9UM07)
Construct: human PAD4 (NM_012387), A2-P663, was PCR amplified; His-SUMO (N, cleaved yes)
Sequence (Q9UM07 2-663): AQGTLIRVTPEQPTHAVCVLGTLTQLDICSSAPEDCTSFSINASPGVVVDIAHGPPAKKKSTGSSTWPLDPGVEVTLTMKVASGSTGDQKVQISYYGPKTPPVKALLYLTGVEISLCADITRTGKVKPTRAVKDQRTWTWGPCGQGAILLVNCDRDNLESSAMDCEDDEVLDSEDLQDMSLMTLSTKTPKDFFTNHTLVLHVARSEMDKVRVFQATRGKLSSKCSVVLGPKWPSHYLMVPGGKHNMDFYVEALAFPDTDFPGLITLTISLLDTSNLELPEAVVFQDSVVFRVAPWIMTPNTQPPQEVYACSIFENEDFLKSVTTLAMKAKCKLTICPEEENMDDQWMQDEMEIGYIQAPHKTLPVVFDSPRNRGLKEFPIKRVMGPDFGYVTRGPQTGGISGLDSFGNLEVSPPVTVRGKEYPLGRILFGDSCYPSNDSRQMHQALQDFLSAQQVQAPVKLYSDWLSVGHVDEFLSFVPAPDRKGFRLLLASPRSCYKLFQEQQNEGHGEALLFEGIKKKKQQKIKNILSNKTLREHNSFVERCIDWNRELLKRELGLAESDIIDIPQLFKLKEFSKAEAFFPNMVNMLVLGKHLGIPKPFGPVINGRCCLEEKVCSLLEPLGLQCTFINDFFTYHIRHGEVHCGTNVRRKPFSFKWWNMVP
Assay: In vitro PAD4 BAEE biochemical assay
Conditions: BAEE substrate 3 mM, 5 nM PAD4, 2 mM calcium chloride; geometric mean of multiple experiments
Please don't drop the unit; write it after the number.

Field: example entries. Status: answers known.
>  <compound>
C[C@H]1NC(=O)C(C)(C)CCCCCCn2c(-c3nc4cc(C(=O)N[C@H]5CNCC[C@@H]5F)c(F)cc4n3C)cc3ccc1cc32

>  <IC50>
41 nM

$$$$
>  <compound>
COc1cc(C(=O)N2[C@H]3CC[C@@H]2[C@H](N)C3)cc2nc(-c3cc4ccc5nc4n3CCCCCc3ccccc3C(=O)N[C@@H]5C)n(C)c12

>  <IC50>
23 nM

$$$$
>  <compound>
COc1cc(C(=O)N2[C@H]3CC[C@@H]2[C@H](N)C3)cc2nc(-c3cc4ccc5nc4n3CCCCCCCC(=O)N3CC4(CC4)CC53)n(C)c12 (stereo partly drawn)

>  <IC50>
125 nM

$$$$
>  <compound>
C[C@H]1NC(=O)[C@@H]2C[C@H]2CCCCCn2c(-c3nc4cc(C(=O)N[C@H]5CNCC[C@@H]5F)c(F)cc4n3CCC#N)cc3ccc1nc32

>  <IC50>
25 nM

$$$$
>  <compound>
COc1cc(C(=O)N2[C@H]3CC[C@@H]2[C@H](N)C3)cc2nc(-c3cc4ccc5nc4n3CC(F)(F)CCC[C@@H]3C[C@H]3C(=O)N[C@@H]5C)n(C)c12

>  <IC50>
23 nM

$$$$

Req: Any idea what its IC50 is? The compound is COc1cc(C(=O)N2CC[C@@H](OC)[C@@H](N)C2)cc2nc(-c3cc4ccc5c(F)c4n3CCCCCCC(C)(C)C(=O)N[C@@H]5C)n(C)c12
Resp: 54 nM

====

Molecular target: human PAD4 (Homo sapiens, UniProt Q9UM07)
Construct: human PAD4 (NM_012387), A2-P663, was PCR amplified; His-SUMO (N, cleaved yes)
Test: In vitro PAD4 BAEE biochemical assay
Conditions: BAEE substrate 3 mM, 5 nM PAD4, 2 mM calcium chloride; geometric mean of multiple experiments
parameter: IC50 (nM)
Numbers only, in nM.

>  <compound>
COc1cc(C(=O)N2CC[C@@H](OC)[C@@H](N)C2)cc2nc(-c3cc4ccc5nc4n3CCCCCC[C@@](F)(c3ccccn3)C(=O)N[C@@H]5C)n(C)c12 [Example 870]

>  <tested system>
human PAD4 (Homo sapiens, UniProt Q9UM07)

>  <result value>
83

$$$$

Value sought for every listed compound: IC50.
1. COc1cc(C(=O)N2CC[C@@H](OC)[C@@H](N)C2)cc2nc(-c3cc4ccc5nc4n3CCCCCC[C@](C)(c3ccccn3)C(=O)N[C@@H]5C)n(C)c12 [Example 861]
2. COc1cc(C(=O)N2CCC[C@@H](N)C2)cc2nc(-c3cc4ccc5nc4n3CCCCCC[C@H](C)C(=O)N[C@@H]5C)n(C)c12 [Example 111]
3. C[C@H]1NC(=O)c2ccc(Cl)nc2CCCCCn2c(-c3nc4cc(C(=O)N5C[C@H](N)[C@@H]6CC[C@H]5C6)cc(Cl)c4n3C3CC3)cc3ccc1nc32 [Example 812]
4. COc1cc(C(=O)N2CCC[C@@H](N)C2)cc2nc(-c3cc4ccc5nc4n3CCCCCCNC(=O)c3ccccc3-5)n(C)c12 [Example 49]

Resp:
[39, 49, 31, 112]

Value sought for every listed compound: IC50.
1. CN[C@H]1CN(C(=O)c2cc(OC)c3c(c2)nc(-c2cc4ccc5nc4n2CCCCCCC(C)(C)C(=O)N[C@@H]5C)n3C)CC[C@H]1OC [Example 105]
2. COc1cc(C(=O)N2CC[C@@H](OC)[C@@H](N)C2)cc2nc(-c3cc4ccc5nc4n3CCCCCCNC(=O)c3ncccc3-5)n(C)c12 [Example 675]
3. C[C@H]1NC(=O)c2ccc(Cl)nc2CCCCCn2c(-c3nc4cc(C(=O)N5C[C@H](N)[C@@H]6CC[C@H]5C6)cc(F)c4n3C)cc3ccc1nc32 [Example 469]
4. C[C@H]1NC(=O)[C@H]2[C@H](CCCC(F)(F)Cn3c(-c4nc5cc(C(=O)N[C@H]6CNCC[C@@H]6F)c(F)cc5n4C4CC4)cc4ccc1nc43)C2(F)F [Example 391]
5. COc1cc(C(=O)N2[C@H]3CC[C@@H]2[C@H](N)C3)cc2nc(-c3cc4ccc5nc4n3C[C@H]3C[C@@H]3COCCC(=O)N[C@@H]5C)c(C)n12 [Example 323]
6. COc1cc(C(=O)N2C[C@H](N)[C@@H]3CC[C@H]2C3)cc2nc(-c3cc4ccc5nc4n3CCC[C@H]3C[C@@H]3c3ccccc3C(=O)N[C@@H]5C)n(C)c12 [Example 893]

Resp:
1. 27400
2. 559
3. 21
4. 34
5. 14
6. 28
